- System: H-MEC-1
- PROTOCOL: SRB colorimetric cell growth inhibition assay, H-MEC-1
- Assay type: cell-based
- CONDITION_SET: H-MEC-1; cell killing (cytotoxic effect)
OBSERVATION_TYPE: LC50 (concentration giving 50% net cell killing)

[[record]]
compound = "COc1cc(-c2c3n(c4c(=O)oc5cc(OS(C)(=O)=O)c(OC)cc5c24)CCc2cc(OS(C)(=O)=O)c(OC)cc2-3)ccc1OS(C)(=O)=O [Compound 22]"
subject_of_test = "H-MEC-1"
measured_value = "10.4 µM"


====

- Test system: LNCaP
- PROTOCOL: SRB colorimetric cell growth inhibition assay, LNCaP
- Assay type: cell-based
- CONDITION_SET: Homo sapiens, LNCaP, LN-caP; cell killing (cytotoxic effect); read-out: LC50 LN-caP
OBSERVATION_TYPE: CC50 (µM)

[[record]]
structure_string = "COc1cc2ccn3c(c(-c4ccc(OC(=O)[C@@H](NC(=O)OC(C)(C)C)C(C)C)c(OC)c4)c4c5cc(OC)c(OC(=O)[C@@H](NC(=O)OC(C)(C)C)C(C)C)cc5oc(=O)c43)c2cc1OC"
subject_of_test = "LNCaP"
observation_type = "CC50"
measured_value = 3.93

[[record]]
structure_string = "COc1cc2ccn3c(c(-c4ccc(OC(=O)[C@@H](N)Cc5ccccc5)c(OC)c4)c4c5cc(OC)c(OC(=O)[C@@H](N)Cc6ccccc6)cc5oc(=O)c43)c2cc1OC"
subject_of_test = "LNCaP"
observation_type = "CC50"
measured_value = 4.27

[[record]]
structure_string = "COc1cc(-c2c3c4cc(OC)c(OC(=O)[C@@H]5CCCN5)cc4oc(=O)c3n3ccc4cc(OC(=O)[C@@H]5CCCN5)c(OC)cc4c23)ccc1OC(=O)[C@@H]1CCCN1"
subject_of_test = "LNCaP"
observation_type = "CC50"
measured_value = 0.423


====

- Tested on: A-549
- PROTOCOL: SRB colorimetric cell growth inhibition assay, A-549
- Format: cell-based
- CONDITION_SET: Homo sapiens, A549, A-549; TGI=total growth inhibition (cytostatic effect); read-out: TGI A-549
Listed below: log10(IC (TGI)) values for each entry.
OBSERVATION_TYPE: log10(IC (TGI)) (log10 of the value in µM)

[[record]]
compound = "COc1cc(-c2c3n(c4c(=O)oc5cc(OC(=O)[C@H](N)C(C)C)c(OC)cc5c24)CCc2cc(OC(=O)[C@H](N)C(C)C)c(OC)cc2-3)ccc1OC(=O)[C@H](N)C(C)C [Compound 32]"
observation_type = "log10(IC (TGI))"
measured_value = 0.52

[[record]]
compound = "COc1cc(-c2c3c4cc(OC)c(OC(=O)[C@@H](N)C(C)C)cc4oc(=O)c3n3ccc4c(OC(=O)[C@@H](N)C(C)C)c(OC)c(OC)cc4c23)ccc1OC(=O)[C@@H](N)C(C)C [Compound 35]"
observation_type = "log10(IC (TGI))"
measured_value = -0.59

[[record]]
compound = "COc1cc(-c2c3n(c4c(=O)oc5cc(OC(=O)[C@@H](N)COCc6ccccc6)c(OC)cc5c24)CCc2c-3cc(OC)c(OC)c2OC(=O)[C@@H](N)COCc2ccccc2)ccc1OC(=O)[C@@H](N)COCc1ccccc1 [Compound 66]"
observation_type = "log10(IC (TGI))"
measured_value = 0.54

[[record]]
compound = "COc1cc(-c2c3c4cc(OC)c(O)cc4oc(=O)c3n3ccc4c([N+](=O)[O-])cccc4c23)ccc1O [Compound 53]"
observation_type = "log10(IC (TGI))"
measured_value = 1.30

[[record]]
compound = "COc1cc(-c2c3n(c4c(=O)oc5cc(OC(=O)[C@@H](N)CO)c(OC)cc5c24)CCc2c-3cc(OC)c(OC)c2OC(=O)[C@@H](N)CO)ccc1OC(=O)[C@@H](N)CO [Compound 59]"
observation_type = "log10(IC (TGI))"
measured_value = 0.52

[[record]]
compound = "COc1cc2c(cc1OC)-c1c(-c3ccc(OC(=O)CCCC[C@@H]4SC[C@@H]5NC(=O)N[C@@H]54)c(OC)c3)c3c4cc(OC)c(OC(=O)CCCC[C@@H]5SC[C@@H]6NC(=O)N[C@@H]65)cc4oc(=O)c3n1CC2 [Compound 47]"
observation_type = "log10(IC (TGI))"
measured_value = 1.01

[[record]]
compound = "COc1cc(-c2c3c4cc(OC)c(OC(=O)[C@@H]5CCCN5)cc4oc(=O)c3n3ccc4cc(OC(=O)[C@@H]5CCCN5)c(OC)cc4c23)ccc1OC(=O)[C@@H]1CCCN1 [Compound 33]"
observation_type = "log10(IC (TGI))"
measured_value = -0.81

[[record]]
compound = "COc1cc(-c2c3c4cc(OC)c(OC(=O)[C@@H](N)CC(C)C)cc4oc(=O)c3n3ccc4c(OC(=O)[C@@H](N)CC(C)C)c(OC)c(OC)cc4c23)ccc1OC(=O)[C@@H](N)CC(C)C [Compound 45]"
observation_type = "log10(IC (TGI))"
measured_value = 1.06

[[record]]
compound = "COc1cc(-c2c3c4cc(OC)c(OC(=O)[C@@H](N)Cc5ccccc5)cc4oc(=O)c3n3ccc4c(OC(=O)[C@@H](N)Cc5ccccc5)c(OC)c(OC)cc4c23)ccc1OC(=O)[C@@H](N)Cc1ccccc1 [Compound 31]"
observation_type = "log10(IC (TGI))"
measured_value = 0.15

[[record]]
compound = "COc1cc(-c2c3n(c4c(=O)oc5cc(OC(=O)[C@H](Cc6c[nH]c7ccccc67)NC(=O)OC(C)(C)C)c(OC)cc5c24)CCc2cc(OC(=O)[C@H](Cc4c[nH]c5ccccc45)NC(=O)OC(C)(C)C)c(OC)cc2-3)ccc1OC(=O)[C@H](Cc1c[nH]c2ccccc12)NC(=O)OC(C)(C)C [Compound 29]"
observation_type = "log10(IC (TGI))"
measured_value = 0.56

[[record]]
compound = "COc1cc(-c2c3n(c4c(=O)oc5cc(OC(=O)[C@@H](N)C(C)C)c(OC)cc5c24)CCc2cc(OC(=O)[C@@H](N)C(C)C)c(OC)cc2-3)ccc1OC(=O)[C@@H](N)C(C)C [Compound 37]"
observation_type = "log10(IC (TGI))"
measured_value = 0.58

[[record]]
compound = "COc1cc2ccn3c(c(-c4ccc(OC(=O)[C@H](C)NC(=O)OC(C)(C)C)c(OC)c4)c4c5cc(OC)c(OC(=O)[C@H](C)NC(=O)OC(C)(C)C)cc5oc(=O)c43)c2cc1OC [Compound 77]"
observation_type = "log10(IC (TGI))"
measured_value = 1.07

[[record]]
compound = "COc1cc(-c2c3c4cc(OC)c(OC(=O)[C@@H](N)C(C)C)cc4oc(=O)c3n3ccc4cc(OC(=O)[C@@H](N)C(C)C)c(OC)cc4c23)ccc1OC(=O)[C@@H](N)C(C)C [Compound 36]"
observation_type = "log10(IC (TGI))"
measured_value = -0.81

[[record]]
compound = "COc1cc(-c2c3n(c4c(=O)oc5cc(OC(=O)[C@H](CO)NC(=O)OC(C)(C)C)c(OC)cc5c24)CCc2c-3cc(OC)c(OC)c2OC(=O)[C@H](CO)NC(=O)OC(C)(C)C)ccc1OC(=O)[C@H](CO)NC(=O)OC(C)(C)C [Compound 60]"
observation_type = "log10(IC (TGI))"
measured_value = 0.67

[[record]]
compound = "COc1cc(-c2c3n(c4c(=O)oc5cc(N)c(OC)cc5c24)CCc2cc(OC)c(OC)cc2-3)ccc1N [Compound 57]"
observation_type = "log10(IC (TGI))"
measured_value = 1.29

[[record]]
compound = "COc1cc(-c2c3c4cc(OC)c(OC(=O)[C@H](C)NC(=O)OC(C)(C)C)cc4oc(=O)c3n3ccc4cc(OC(=O)[C@H](C)NC(=O)OC(C)(C)C)c(OC)cc4c23)ccc1OC(=O)[C@H](C)NC(=O)OC(C)(C)C [Compound 41]"
observation_type = "log10(IC (TGI))"
measured_value = 0.90

[[record]]
compound = "COc1cc2c(cc1OC)-c1c(-c3ccc(OC(=O)[C@H](Cc4ccccc4)NC(=O)OC(C)(C)C)c(OC)c3)c3c4cc(OC)c(OC(=O)[C@H](Cc5ccccc5)NC(=O)OC(C)(C)C)cc4oc(=O)c3n1CC2 [Compound 84]"
observation_type = "log10(IC (TGI))"
measured_value = 0.69

[[record]]
compound = "COc1cc(-c2c3n(c4c(=O)oc5cc(OC(=O)[C@H](NC(=O)OC(C)(C)C)C(C)C)c(OC)cc5c24)CCc2cc(OC(=O)[C@H](NC(=O)OC(C)(C)C)C(C)C)c(OC)cc2-3)ccc1OC(=O)[C@H](NC(=O)OC(C)(C)C)C(C)C [Compound 34]"
observation_type = "log10(IC (TGI))"
measured_value = 0.57

[[record]]
compound = "COc1cc(-c2c3c4cc(OC)c(OC(=O)[C@H](C)N)cc4oc(=O)c3n3ccc4cc(OC(=O)[C@H](C)N)c(OC)cc4c23)ccc1OC(=O)[C@H](C)N [Compound 40]"
observation_type = "log10(IC (TGI))"
measured_value = -0.57

